Value source: ChEMBL document CHEMBL2429780

System: Pseudomonas aeruginosa
assay.protocol: Antibacterial activity against Pseudomonas aeruginosa MTCC 1688 assessed as growth inhibition after 24 hrs by broth dilution assay
Format: functional
conditions.used: MTCC 1688, 24 h
property.label: MIC

Examples from the recorded data:
{"given.smiles": "N#Cc1c(-c2cccc(Cl)c2)cc(-c2nc3ccccc3[nH]2)nc1N", "property.label": "MIC", "reported": "≥ 1000 µg/mL"}
{"given.smiles": "N#Cc1c(-c2ccc([N+](=O)[O-])cc2)cc(-c2nc3ccccc3[nH]2)nc1N", "property.label": "MIC", "reported": "≥ 1000 µg/mL"}

Shifting focus to the compound that follows.
MIC lookup needed for N#Cc1c(-c2cccc([N+](=O)[O-])c2)cc(-c2nc3ccccc3[nH]2)nc1N , thanks. ≥ 1000 µg/mL
